TGI for assorted compounds
System: OVCAR-5 ovarian
Assay: NCI tumour cell line growth inhibition, 48 h

compound: CCC1(C(=O)OC(C)(C)C)OC12C(C)CCCC2C (stereo not drawn)
measurement-target: OVCAR-5 ovarian
TGI: > 100 µM

compound: NC(=O)NNC(=O)c1nc[nH]c1[N+](=O)[O-]
measurement-target: OVCAR-5 ovarian
TGI: > 100 µM

compound: COC(=O)N/N=C(\C)C(CN1CCCCC1)C(C1=C(O)c2ccccc2OC1)c1ccccc1 (stereo not drawn)
measurement-target: OVCAR-5 ovarian
TGI: > 100 µM

compound: CC(C)CNC(=O)O
measurement-target: OVCAR-5 ovarian
TGI: > 100 µM

compound: O=C(Cc1ccccc1)NN1C(=O)C(Cl)C1c1ccc(O)cc1 (stereo not drawn)
measurement-target: OVCAR-5 ovarian
TGI: > 100 µM

compound: COc1cc2c(cc1O)C1Cc3ccc(OC)c(O)c3C(C2)N1C (stereo not drawn)
measurement-target: OVCAR-5 ovarian
TGI: > 100 µM

compound: Cc1[nH]c(=O)[nH]c(=O)c1/C=C/C(=O)O
measurement-target: OVCAR-5 ovarian
TGI: > 1000 µM

compound: CCCCCC(=O)NC(=S)Nc1nn[nH]n1
measurement-target: OVCAR-5 ovarian
TGI: > 100 µM

compound: Cc1ccc2c(=O)cc(-c3cccs3)[nH]c2n1
measurement-target: OVCAR-5 ovarian
TGI: > 100 µM

compound: CCn1nc2c3c(ncn3C(C)(C)O2)c1=O
measurement-target: OVCAR-5 ovarian
TGI: > 100 µM

compound: CCOP(=O)(OCC)c1c(C(=O)OC)cc(=O)[nH]c1-c1ccc(C)cc1
measurement-target: OVCAR-5 ovarian
TGI: 20.5 µM

compound: COc1ccc2c(O)cc3c(c2c1)[C@H](CCl)CN3C(=O)c1cc2cc(NC(=O)CCN3CCOCC3)ccc2[se]1
measurement-target: OVCAR-5 ovarian
TGI: 1.29 µM

compound: CCc1ccc2oc(-c3cc(O)c(-c4nc5cc(CC)ccc5o4)cc3O)nc2c1
measurement-target: OVCAR-5 ovarian
TGI: > 100 µM

compound: O=C1c2ccccc2-c2nc(-c3cccc([N+](=O)[O-])c3)nnc21
measurement-target: OVCAR-5 ovarian
TGI: 50 µM

compound: O=c1oc2ccccc2c(Nc2ccc3c(c2)Oc2ccccc2O3)c1[N+](=O)[O-]
measurement-target: OVCAR-5 ovarian
TGI: > 100 µM

compound: NC1=NS(=O)(=O)Nc2nc(-c3ccc([N+](=O)[O-])o3)[nH]c21
measurement-target: OVCAR-5 ovarian
TGI: 35 µM

compound: CC(=O)/C=C/c1ccc(C#Cc2ccccc2)s1
measurement-target: OVCAR-5 ovarian
TGI: 29.7 µM

compound: COc1ccc(-c2ccc(/C=N/n3c(C)n[nH]c3=S)o2)c([N+](=O)[O-])c1
measurement-target: OVCAR-5 ovarian
TGI: > 100 µM

compound: COC(=O)CCC(=O)CC1CC(=O)C2CCCN12 (stereo not drawn)
measurement-target: OVCAR-5 ovarian
TGI: > 100 µM

compound: Cc1cn(C(Cc2ccccc2)OCCO)c(=O)[nH]c1=O (stereo not drawn)
measurement-target: OVCAR-5 ovarian
TGI: > 100 µM

compound: O=C(Nc1ccc(-n2cc(-c3ccncc3)c(-c3ccc(Cl)c(O)c3)n2)cc1)Nc1ccc(Cl)c(C(F)(F)F)c1
measurement-target: OVCAR-5 ovarian
TGI: 8.98 µM

compound: CCC(C)(C)c1ccc(OCCCCCCN2CCNCC2)cc1
measurement-target: OVCAR-5 ovarian
TGI: 5.39 µM

compound: Cc1ccc2nc(Cl)c(/C=N/N3C(=O)/C(=C/c4ccccc4S)N=C3c3ccccc3)cc2c1
measurement-target: OVCAR-5 ovarian
TGI: > 100 µM

compound: O=C1NC(N/N=C/C(O)C(O)C(O)CO)=N/C1=C\c1ccco1 (stereo not drawn)
measurement-target: OVCAR-5 ovarian
TGI: > 100 µM

compound: NC1=NS(=O)(=O)Nc2nc(-c3ccc(Cl)cc3)c(-c3ccc(Cl)cc3)nc21
measurement-target: OVCAR-5 ovarian
TGI: > 100 µM

compound: Cc1cn2c(/C=C3\C(=O)N(C)c4ccc(O)cc43)c(C)nc2s1
measurement-target: OVCAR-5 ovarian
TGI: > 100 µM

compound: COC(=O)/C(C)=C/[N+](=O)[O-]
measurement-target: OVCAR-5 ovarian
TGI: 35.4 µM

compound: Cc1ccc(S(=O)(=O)OCC(=O)O)cc1
measurement-target: OVCAR-5 ovarian
TGI: > 100 µM

compound: C/C=C/C(O)P1(=O)N(Cc2ccccc2)[C@@H]2CCCC[C@H]2N1Cc1ccccc1 (stereo partly drawn)
measurement-target: OVCAR-5 ovarian
TGI: > 25 µM

compound: COc1ccc2[nH]c3c4c(ccc3c2c1)C(=O)C=CC4=O
measurement-target: OVCAR-5 ovarian
TGI: 41.5 µM

compound: CCOC(=N)CC(=O)Nc1cccc(C)c1C
measurement-target: OVCAR-5 ovarian
TGI: > 100 µM

compound: COC(=O)[C@@H]1CCCN1CCN1CCC[C@H]1C(=O)OC
measurement-target: OVCAR-5 ovarian
TGI: > 100 µM

compound: O=C(O)CC[N+]1=CCC(c2ccccc2)(c2ccccc2)O1
measurement-target: OVCAR-5 ovarian
TGI: > 100 µM
